Target: glucagon receptor (UniProt P47871 26-477, limits assumed)
Sequence (P47871 26-477 limits assumed): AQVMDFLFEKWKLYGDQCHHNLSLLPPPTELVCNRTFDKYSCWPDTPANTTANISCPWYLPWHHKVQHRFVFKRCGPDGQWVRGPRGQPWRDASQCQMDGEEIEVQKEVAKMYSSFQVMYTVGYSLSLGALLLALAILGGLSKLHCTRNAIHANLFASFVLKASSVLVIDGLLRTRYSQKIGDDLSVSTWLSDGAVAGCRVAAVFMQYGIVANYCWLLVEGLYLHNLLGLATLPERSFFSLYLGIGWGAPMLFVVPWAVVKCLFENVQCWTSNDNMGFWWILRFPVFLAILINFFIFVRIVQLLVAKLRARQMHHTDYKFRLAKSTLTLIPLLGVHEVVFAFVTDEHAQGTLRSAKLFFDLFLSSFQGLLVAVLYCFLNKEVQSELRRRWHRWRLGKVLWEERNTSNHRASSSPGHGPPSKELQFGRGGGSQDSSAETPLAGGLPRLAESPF
Experiment: cell-based or functional assay
Where no end group is shown, it is not given here. [ ]: non-standard residue; d: D form. The star is where a group is joined. Nle = CCCC[C@H](N)C(=O)O; Orn = NCCC[C@H](N)C(=O)O; Dab = NCC[C@H](N)C(=O)O; Dap = NC[C@H](N)C(=O)O; Carbamoyl = NC(=O)*
MEASUREMENT_NAME: % activity*
# number then unit; no other words

Please review the following examples before continuing.
Query block: Fill in: % activity* of HS[Dap](Carbamoyl)GTFTSDYSKYLDTRRAAEFVAWL[Nle]DE [Peptide J backbone with Dap(urea) at position 3] is ___
Result block: 13%

Query block: Fill in: % activity* of HS[Dab](Ac)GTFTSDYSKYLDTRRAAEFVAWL[Nle]DE [Peptide J backbone with Dab(Ac) at position 3] is ___
Result block: 19%

# input for lookup
Query block: Fill in: % activity* of HS[Orn](Ac)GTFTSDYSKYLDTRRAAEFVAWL[Nle]DE [Peptide J backbone with Orn(Ac) at position 3] is ___
Result block: 7%
